meta.source: patent US20250250357A1

Molecular target: T1, human MSLN-R2-his protein (human, UniProt Q13421 391-486)
T1 construct: Self-made in HEK293E cells; also called human MSLN-R2 protein; hMSLN-R2-his; not shown: His tag
T1 sequence (Q13421 other isoform, or with tags, fused parts or gaps): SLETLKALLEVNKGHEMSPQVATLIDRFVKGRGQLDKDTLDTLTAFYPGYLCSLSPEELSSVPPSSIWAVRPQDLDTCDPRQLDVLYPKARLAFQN
Assay: ELISA on coated antigen, antibody 0.1 nM
binders and their reported OD450
# number only, unit OD450 dropped from output

These recorded examples may help you get a feel for the data.
[
  {
    "BINDER": "S009-F2.39.3 (antibody, human IgG1, kappa, V domains shown, Human-murine chimeric antibody: murine VH/VL on human IgG1 heavy and kappa light constant regions) VH: QVQLQQPGTELVKPGASVKLSCKASGYTFTNYWMHWVKQRPGQGLEWIGNINPSSGDSYYNERFMSKAKMTVDKSSSTAYMQLSSLTSEDSAVYYCARSGGLWLAFWGPGTLVTVSA VL: DIVMTQSPSSLAMSVGQKVTMSCKSSQTLLNSVSQNNYLAWYQQKPGQSPTLLVYFASTRESGVPDRFIGGGSGTDFTLTISSVQAEDLADYFCQQHYRTPYTFGGGTNLEIKR",
    "OD450 / OD450": 0.05
  },
  {
    "BINDER": "S009-F2.13.3 (antibody, human IgG1, kappa, V domains shown, Human-murine chimeric antibody: murine VH/VL on human IgG1 heavy and kappa light constant regions) VH: QVQLQQSGAELMKPGASVKLSCKATGYTFTGYWIEWVKQRPGHGLEWIGEILPGSGSTNYNEKFKGKATFTADTSSNTAYMQLSSLTTEDSAIYYCARAGAWFAYWGQGTLVTVSA VL: QIVLTQSPAIMSASLGERVTMTCTASSSVSSSYLHWYQQKPGSSPKLWTYSTSNLASGVPARFSGSGSGTSYSLTISSMEAEDAATYYCHQYHRSPWTFGGGTKLEIKR",
    "OD450 / OD450": 0.05
  }
]

Consider now this further binder.
Kindly indicate its recorded OD450. Item: S009-F2.16.10 (antibody, human IgG1, kappa, V domains shown, Human-murine chimeric antibody: murine VH/VL on human IgG1 heavy and kappa light constant regions) VH: QVQLQQPGAELIKPGASVKLSCKASGYTFTSYWMHWVKQRPGQGLEWIGIIHPNIGSTNYNERFKSKATLTVDKSSSTAYMQLSSLTSEDSAVYYCARRSSNYGDWYFDVWGTGTTVTVSS VL: DIVMTQSHRFMSTSVGDRVSITCKASQDVGTSVAWYQQKPGQSPKLLIYWASTQHTGVPDRFTGSGSGTDFTLTINNVQSEDLLDYFCQQYSSYPLTFGAGTKLELKR
0.05
